Target: recombinant human LTA4 hydrolase (rhLTA4H) (Homo sapiens, UniProt P09960)
Construct: made in house; host or cells: Spodoptera frugiperda (Sf-9) cells, baculovirus (pFastBac1)
Sequence (P09960 whole entry): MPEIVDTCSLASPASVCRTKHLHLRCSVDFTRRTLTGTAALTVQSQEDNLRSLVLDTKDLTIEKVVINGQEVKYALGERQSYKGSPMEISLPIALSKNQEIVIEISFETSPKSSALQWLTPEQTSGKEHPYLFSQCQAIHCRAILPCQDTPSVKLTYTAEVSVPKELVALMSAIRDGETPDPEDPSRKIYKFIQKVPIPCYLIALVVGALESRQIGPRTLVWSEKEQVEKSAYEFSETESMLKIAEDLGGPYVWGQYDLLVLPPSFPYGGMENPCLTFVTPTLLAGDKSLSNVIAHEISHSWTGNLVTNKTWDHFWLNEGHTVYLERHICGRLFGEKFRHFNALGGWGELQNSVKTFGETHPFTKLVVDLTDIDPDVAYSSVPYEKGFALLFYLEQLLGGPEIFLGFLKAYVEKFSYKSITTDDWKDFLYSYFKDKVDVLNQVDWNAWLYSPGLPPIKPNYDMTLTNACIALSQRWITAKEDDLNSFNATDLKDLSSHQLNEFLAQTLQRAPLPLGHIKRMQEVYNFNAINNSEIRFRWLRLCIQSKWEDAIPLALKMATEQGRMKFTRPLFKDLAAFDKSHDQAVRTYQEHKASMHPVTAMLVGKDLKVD
Assay: Recombinant human LTA4 hydrolase assay for LTA4 hydrolase inhibitor activity
Format: biochemical
Settings: rhLTA4H, LTB4 by immunoassay; single determination or average of two or more; mark after value = form tested: ′ free base, ″ hydrochloride, ^ formate; read-out: IC50
Procedure: Assay 1: Recombinant Human LTA4 Hydrolase Assay for LTA4 Hydrolase Inhibitor Activity Compounds of the present invention were tested for LTA4 hydrolase inhibitor activity against recombinant human LTA4 hydrolase (rhLTA4H). Vectors were prepared and used to express rhLTA4H essentially as follows: LTA4 hydrolase encoding DNA was amplified by polymerase chain reaction (PCR) using a human placental cDNA library as a template. […]
Structures can show the parent of a compound that is named as a salt.
// reported IC50 for each item listed
Supply the numeric figure in nM, leaving out any unit text.

# example entries with known answers
Prompt: For the compound CC(=O)N1CCC(N(Cc2coc3cc(Oc4nc5ncccc5s4)ccc23)C2CC2)CC1 , report IC50.
Completion: 5

Prompt: For the compound CC(=O)N1[C@@H]2CC[C@H]1C[C@@H](NCc1coc3cc(Oc4nc5ncccc5s4)ccc13)C2 , report IC50.
Completion: 8

Prompt: For the compound FC(F)(F)C1CCN(Cc2cc3ccc(Oc4nc5ncccc5s4)cc3o2)CC1 [Example 191, formate] , report IC50.
Completion: 10

Prompt: For the compound c1cnc2nc(Oc3ccc4c(CN5CCN(C6CC6)CC5)coc4c3)sc2c1 , report IC50.
Completion: 12

Prompt: For the compound NC(=O)NC1CCN(Cc2coc3cc(Oc4nc5ncccc5s4)ccc23)CC1 , report IC50.
Completion: 5

Further cases:
Prompt: For the compound NS(=O)(=O)c1ccc(CCNCc2coc3cc(Oc4nc5ccccc5s4)ccc23)cc1 , report IC50.
Completion: 230

Prompt: For the compound CC(=O)N1C[C@@H]2C[C@H]1CN2Cc1cc2cc(Oc3nc4cccnc4s3)ccc2o1 , report IC50.
Completion: 488

Prompt: For the compound NC(=O)C1CCN(C(=O)c2coc3cc(Oc4nc5ncccc5s4)ccc23)CC1 , report IC50.
Completion: 22

Prompt: For the compound c1ccc(C2CCN(Cc3c[nH]c4cc(Oc5nc6ccccc6s5)ccc34)CC2)cc1 , report IC50.
Completion: 11
